molecular target: CDK4/Cyclin D1 (Homo sapiens (Human)); experiment: CDK4/CyclinD1 enzymatic activity assay (TR-FRET); details: ATP 2 mM, read-out: CDK4_D1 IC50
Sequence (P11802 whole entry): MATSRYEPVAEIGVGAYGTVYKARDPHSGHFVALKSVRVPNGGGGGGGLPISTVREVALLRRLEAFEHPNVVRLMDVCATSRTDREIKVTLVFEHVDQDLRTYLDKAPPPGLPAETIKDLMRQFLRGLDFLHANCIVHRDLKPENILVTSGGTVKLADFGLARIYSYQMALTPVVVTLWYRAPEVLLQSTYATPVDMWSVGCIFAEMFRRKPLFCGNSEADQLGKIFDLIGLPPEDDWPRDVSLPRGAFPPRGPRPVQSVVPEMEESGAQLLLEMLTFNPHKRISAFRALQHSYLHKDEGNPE
Sequence (P24385 whole entry partner): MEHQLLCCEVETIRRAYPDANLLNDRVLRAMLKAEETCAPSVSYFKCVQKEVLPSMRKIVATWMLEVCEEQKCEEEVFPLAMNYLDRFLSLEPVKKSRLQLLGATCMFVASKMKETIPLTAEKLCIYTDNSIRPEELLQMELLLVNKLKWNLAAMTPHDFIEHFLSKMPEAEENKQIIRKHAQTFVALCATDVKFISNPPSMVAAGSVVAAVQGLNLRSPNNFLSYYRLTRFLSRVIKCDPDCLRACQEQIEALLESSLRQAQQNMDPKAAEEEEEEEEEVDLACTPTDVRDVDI
pIC50: −log10 of the molar value.
endpoint.name: pIC50

Exam item: Could you tell me which pIC50 is on file for Cc1c(-c2nc(Nc3ccc(N4CCN(CC(F)(F)F)CC4)cn3)ncc2F)sc2c(C(C)C)cn(C)c(=O)c12 ?
Marked response: 6.70 to 7.70

Exam item: Field entry: CCN1CCN(c2ccc(Nc3ncc(F)c(-c4sc5c(C(C)=O)n(C)nc5c4C)n3)nc2)CC1
Marked response: 5.70 to 6.70

Exam item: Field entry: Cc1c(-c2nc(Nc3ccc(C4CCN(C)CC4)cn3)ncc2F)sc2c(C(C)C)c[nH]c(=O)c12
Marked response: ≥ 7.70
